Assign IC50 to each entry below.
tested on: HepG2 cells; assay: Cytotoxicity assay (MTT, 72 h) on HepG2; format: cell-based; conditions: Homo sapiens; liver cancer cell line HepG2, MTT, 72 h, Table S2; read-out: HepG2 IC50

Requested field: IC50. Item: Cc1c(O)c2c(c3c1OC(=O)c1c(C)c(Br)c(O)c(C=O)c1O3)C(O)OC2=O (stereo not shown) [Compound 6a]
> 100 µg/mL

Requested field: IC50. Item: CC(=O)OCc1c(O)c(Br)c(C)c2c1OC(=O)c1c(C)c(Br)c(O)c(Br)c1O2 [Compound 1d]
86.7 µg/mL

Requested field: IC50. Item: COc1cc(C)c2c(c1C=O)Oc1c(c(C)c(O)c3c1C(OC)OC3=O)OC2=O (stereo not shown) [Compound 2, 8′-methylstictic acid]
> 100 µg/mL

Requested field: IC50. Item: COc1c(C)c2c(c(C)c1Cl)Oc1c(C)c(O)c(Cl)c(C)c1C(=O)O2 [Compound 5, vicanicin]
> 100 µg/mL

----------
Assay: Cytotoxicity assay (MTT, 72 h) on HepG2
Format: cell-based
Settings: human
Excerpt: Table S2. Cytotoxicity of compounds 1-6, 11, 1a-1e, and 6a […] The method used followed that reported by Nguyen et al. (2022). […] The absorbance of samples was read at 570 nm by the ELISA Reader (BioTek, USA). […] Where, ASample: Absorbance of sample, ADMSO: Absorbance of negative control, AB1: Absorbance of blank of sample, AB2: Absorbance of blank of DMSO. […]
Parameter measured: IC50 at 72 h
Quick note: number first, unit second.

Requested field: IC50 at 72 h. Item: COC(=O)[C@]12Oc3ccc(-c4ccc5c(c4O)C(=O)[C@@H]4CC[C@@H](C)[C@H](O)[C@]4(C(=O)OC)O5)c(O)c3C(=O)C1=C(O)C[C@H](C)[C@H]2O [Compound 11, eumitrin A1]
62.1 µM
